target: human F508del-CFTR (Homo sapiens, UniProt P13569, DEL508-508); assay: F508del-CFTR cell surface expression (corrector activity), DiscoveRx ß-galactosidase complementation chemiluminescence assay in recombinant U2OS cell line; conditions: U2OS, in relation to the Emax of the corrector lumacaftor (=100%); U2OS cells, 16h compound incubation; arithmetic mean;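 further: U2OS cells co-expressing ProLink-tagged F508del-CFTR and a membrane-anchored enzyme acceptor, where more surface CFTR restores β-galactosidase activity measured by chemiluminescence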
Sequence (P13569 with tags, fused parts or gaps DEL508-508): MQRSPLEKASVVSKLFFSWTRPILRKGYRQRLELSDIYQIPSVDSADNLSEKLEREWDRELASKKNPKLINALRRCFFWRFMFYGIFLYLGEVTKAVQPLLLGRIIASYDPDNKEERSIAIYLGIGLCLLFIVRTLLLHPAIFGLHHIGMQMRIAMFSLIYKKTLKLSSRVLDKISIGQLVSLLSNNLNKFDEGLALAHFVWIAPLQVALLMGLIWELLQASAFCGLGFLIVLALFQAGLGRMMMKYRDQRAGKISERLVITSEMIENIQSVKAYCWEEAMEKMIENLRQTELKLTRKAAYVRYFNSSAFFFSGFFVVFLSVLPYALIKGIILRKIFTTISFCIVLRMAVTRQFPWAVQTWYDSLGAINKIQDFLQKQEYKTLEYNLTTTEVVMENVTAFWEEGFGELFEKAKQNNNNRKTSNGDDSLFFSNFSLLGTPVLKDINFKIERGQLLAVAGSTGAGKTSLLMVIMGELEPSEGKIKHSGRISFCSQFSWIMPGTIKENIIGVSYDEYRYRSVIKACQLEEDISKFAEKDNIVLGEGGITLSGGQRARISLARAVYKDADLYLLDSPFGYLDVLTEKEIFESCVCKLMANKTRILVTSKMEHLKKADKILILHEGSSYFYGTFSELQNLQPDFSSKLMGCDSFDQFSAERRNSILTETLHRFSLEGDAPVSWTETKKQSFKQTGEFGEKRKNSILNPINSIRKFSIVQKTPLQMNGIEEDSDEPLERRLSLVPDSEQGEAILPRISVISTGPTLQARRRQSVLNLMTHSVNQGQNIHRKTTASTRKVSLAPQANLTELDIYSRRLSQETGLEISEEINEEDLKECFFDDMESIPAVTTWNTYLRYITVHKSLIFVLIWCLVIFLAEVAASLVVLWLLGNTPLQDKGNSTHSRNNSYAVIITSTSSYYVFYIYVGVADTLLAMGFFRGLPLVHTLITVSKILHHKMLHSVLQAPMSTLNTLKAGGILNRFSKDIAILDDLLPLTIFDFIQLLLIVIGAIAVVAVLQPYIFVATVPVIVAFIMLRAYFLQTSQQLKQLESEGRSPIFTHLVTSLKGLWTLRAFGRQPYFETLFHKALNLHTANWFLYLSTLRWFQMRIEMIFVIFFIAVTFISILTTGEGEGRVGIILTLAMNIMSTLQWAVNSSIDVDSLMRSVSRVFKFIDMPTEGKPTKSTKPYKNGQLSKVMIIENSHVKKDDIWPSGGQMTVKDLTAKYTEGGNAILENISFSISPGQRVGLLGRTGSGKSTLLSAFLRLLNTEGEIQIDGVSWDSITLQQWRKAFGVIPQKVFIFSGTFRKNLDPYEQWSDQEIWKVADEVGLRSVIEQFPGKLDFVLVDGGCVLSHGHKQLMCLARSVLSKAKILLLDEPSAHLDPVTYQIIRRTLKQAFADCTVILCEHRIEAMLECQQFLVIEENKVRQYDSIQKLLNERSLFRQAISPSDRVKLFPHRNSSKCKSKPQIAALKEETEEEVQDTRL
READOUT TYPE: Emax (%)
Report the figure in % without appending any unit label.

Form field Emax, entry CCOCC[C@@H]1C(=O)N[C@H](Cc2ccccc2)COc2cc(C)nc(OC)c2C(=O)N[C@H](C(=O)NCCc2cc(OC)no2)CC(=O)N(C)[C@@H](CC(C)C)C(=O)N1C : 361

compound COc1cc(CCNC(=O)[C@@H]2CC(=O)N(C)[C@@H](CC(C)C)C(=O)N(C)[C@H](CCOc3cnc(C)cn3)C(=O)N[C@H](Cc3ccccc3)COc3cc(C)nc(OC)c3C(=O)N2)on1 , Emax observed: 410

Reported Emax for COc1noc(CCNC(=O)[C@@H]2CC(=O)N(C)[C@@H](CC(C)C)C(=O)N3CCCC[C@@H]3C(=O)N[C@H](Cc3ccccc3)COc3cnc4ccc(F)cc4c3C(=O)N2)n1 was 460

Consider CCOCC[C@@H]1C(=O)N[C@H](Cc2ccccc2)COc2ccc3cnc(C)cc3c2C(=O)N[C@H](C(=O)NCCc2nc(OC)no2)CC(=O)N(C)[C@@H](CC(C)C)C(=O)N1C . Its measured Emax is 358

Consider COc1noc(CCNC(=O)[C@@H]2CC(=O)N(C)[C@@H](CC(C)C)C(=O)N(C)C3(CC(F)(F)C3)C(=O)N[C@H](Cc3ccccc3)COc3ccc4ncc(F)cc4c3C(=O)N2)c1F . Its measured Emax is 452

The reported value for CC(C)C[C@H]1C(=O)N(C)[C@H](Cc2nc(C(F)(F)F)no2)C(=O)N[C@H](Cc2ccccc2)COc2ccc3ncc(F)cc3c2C(=O)N[C@H](C(=O)NC[C@@H](O)c2nc(C3CC3)no2)CC(=O)N1C in terms of Emax is 404

Entry CC(C)C[C@H]1C(=O)N(C)[C@H](C)C(=O)N[C@H](Cc2ccccc2)COc2ccc3ncc(F)cc3c2C(=O)N[C@H](C(=O)NCCc2nc(C3CC3)no2)CC(=O)N1C ; Emax = 352

Query COc1nc(C)cc2c1C(=O)N[C@H](C(=O)NC[C@@H](O)c1ccccc1)CC(=O)N(C)[C@@H](CC(C)C)C(=O)N(C)[C@H](Cc1nc(C(F)(F)F)no1)C(=O)N[C@H](Cc1ccccc1)CO2 yields Emax of 364

In plain terms, CC(C)C[C@H]1C(=O)N(C)[C@H](Cc2nc(C(F)(F)F)no2)C(=O)N[C@H](Cc2ccccc2)COc2ccc3ncc(F)cc3c2C(=O)N[C@H](C(=O)NCCc2nc3ncccn3n2)CC(=O)N1C has a documented Emax of 401

// field: Emax; key: COCCc1ccc(-c2noc(C[C@@H]3C(=O)N[C@H](Cc4ccccc4)COc4ccnc(OC)c4C(=O)N[C@H](C(=O)NCCn4ncc(C5CC5)n4)CC(=O)N(C)[C@@H](CC(C)C)C(=O)N3C)n2)cc1 ; value = 378

Form: compound = COc1cc(CCNC(=O)[C@@H]2CC(=O)N(C)[C@@H](CC(C)C)C(=O)N(C)[C@H](Cc3nc(C(F)(F)F)no3)C(=O)N[C@H](Cc3ccccc3)COc3c[n+]([O-])c4ccc(F)cc4c3C(=O)N2)on1 ; Emax = 448

Given item COc1cccc(CCNC(=O)[C@@H]2CC(=O)N(C)[C@@H](CC(C)C)C(=O)N(C)[C@H](C)C(=O)N[C@H](Cc3ccccc3)COc3nc(C)nc(OC)c3C(=O)N2)c1 , the value recorded as its Emax is 288

Notebook: COc1nc(C)cc2c1C(=O)N[C@H](C(=O)NCCn1nnc(C3CC3)n1)CC(=O)N(C)[C@@H](CC(C)C)C(=O)N1CCCC[C@@H]1C(=O)N[C@H](Cc1ccccc1)CO2 , Emax read as 326

Lab note: measured Emax of Cc1noc(CC[C@@H]2C(=O)N[C@H](Cc3ccccc3)COc3cnc4ccc(F)cc4c3C(=O)N[C@H](C(=O)NCCc3noc(C4CC4)n3)CC(=O)N(C)[C@@H](CC(C)C)C(=O)N2C)n1 was 310

# compound COc1cc(CCNC(=O)[C@@H]2CC(=O)N(C)[C@@H](CC(C)C)C(=O)N(C)[C@H](Cc3nc(-c4ccc(F)cn4)no3)C(=O)N[C@H](Cc3ccccc3)COc3ccc4cnc(C)cc4c3C(=O)N2)on1 ; its Emax = 433

For this compound ( COc1nccc2c1C(=O)N[C@H](C(=O)NCCc1noc(C3CC3)n1)CC(=O)N(C)[C@@H](CC(C)C)C(=O)N(C)[C@H](COC1CCC1)C(=O)N[C@H](Cc1ccccc1)CO2 ), measured Emax is 337

The recorded Emax for COc1noc(CCNC(=O)[C@@H]2CC(=O)N(C)[C@@H](CC(C)C)C(=O)N(C)[C@H](Cc3nc(C(F)(F)F)no3)C(=O)N[C@H](Cc3ccccc3)COc3ccc4ncc(F)cc4c3C(=O)N2)n1 is 528

Record CC(C)C[C@H]1C(=O)N(C)[C@H](CC(F)F)C(=O)N[C@H](Cc2ccccc2)COc2ccc3ncc(F)cc3c2C(=O)N[C@H](C(=O)NCCc2noc(C3CC3)n2)CC(=O)N1C , field Emax: 330

The compound COCCCNC(=O)[C@@H]1CC(=O)N(C)[C@@H](CC(C)C)C(=O)N(C)[C@H](Cc2nc(-c3ccc(F)cn3)no2)C(=O)N[C@H](Cc2ccccc2)COc2cnc3ccc(F)cc3c2C(=O)N1 showed Emax equal to 308
